molecular target: UniProtKB Q15858; test: E-VIPR optical membrane potential assay with electrical stimulation; settings: active against one or more sodium channels; Table 3 does not name the assay or NaV subtype; read-out: Binned Activity Data (IC50)
Sequence (Q15858 whole entry): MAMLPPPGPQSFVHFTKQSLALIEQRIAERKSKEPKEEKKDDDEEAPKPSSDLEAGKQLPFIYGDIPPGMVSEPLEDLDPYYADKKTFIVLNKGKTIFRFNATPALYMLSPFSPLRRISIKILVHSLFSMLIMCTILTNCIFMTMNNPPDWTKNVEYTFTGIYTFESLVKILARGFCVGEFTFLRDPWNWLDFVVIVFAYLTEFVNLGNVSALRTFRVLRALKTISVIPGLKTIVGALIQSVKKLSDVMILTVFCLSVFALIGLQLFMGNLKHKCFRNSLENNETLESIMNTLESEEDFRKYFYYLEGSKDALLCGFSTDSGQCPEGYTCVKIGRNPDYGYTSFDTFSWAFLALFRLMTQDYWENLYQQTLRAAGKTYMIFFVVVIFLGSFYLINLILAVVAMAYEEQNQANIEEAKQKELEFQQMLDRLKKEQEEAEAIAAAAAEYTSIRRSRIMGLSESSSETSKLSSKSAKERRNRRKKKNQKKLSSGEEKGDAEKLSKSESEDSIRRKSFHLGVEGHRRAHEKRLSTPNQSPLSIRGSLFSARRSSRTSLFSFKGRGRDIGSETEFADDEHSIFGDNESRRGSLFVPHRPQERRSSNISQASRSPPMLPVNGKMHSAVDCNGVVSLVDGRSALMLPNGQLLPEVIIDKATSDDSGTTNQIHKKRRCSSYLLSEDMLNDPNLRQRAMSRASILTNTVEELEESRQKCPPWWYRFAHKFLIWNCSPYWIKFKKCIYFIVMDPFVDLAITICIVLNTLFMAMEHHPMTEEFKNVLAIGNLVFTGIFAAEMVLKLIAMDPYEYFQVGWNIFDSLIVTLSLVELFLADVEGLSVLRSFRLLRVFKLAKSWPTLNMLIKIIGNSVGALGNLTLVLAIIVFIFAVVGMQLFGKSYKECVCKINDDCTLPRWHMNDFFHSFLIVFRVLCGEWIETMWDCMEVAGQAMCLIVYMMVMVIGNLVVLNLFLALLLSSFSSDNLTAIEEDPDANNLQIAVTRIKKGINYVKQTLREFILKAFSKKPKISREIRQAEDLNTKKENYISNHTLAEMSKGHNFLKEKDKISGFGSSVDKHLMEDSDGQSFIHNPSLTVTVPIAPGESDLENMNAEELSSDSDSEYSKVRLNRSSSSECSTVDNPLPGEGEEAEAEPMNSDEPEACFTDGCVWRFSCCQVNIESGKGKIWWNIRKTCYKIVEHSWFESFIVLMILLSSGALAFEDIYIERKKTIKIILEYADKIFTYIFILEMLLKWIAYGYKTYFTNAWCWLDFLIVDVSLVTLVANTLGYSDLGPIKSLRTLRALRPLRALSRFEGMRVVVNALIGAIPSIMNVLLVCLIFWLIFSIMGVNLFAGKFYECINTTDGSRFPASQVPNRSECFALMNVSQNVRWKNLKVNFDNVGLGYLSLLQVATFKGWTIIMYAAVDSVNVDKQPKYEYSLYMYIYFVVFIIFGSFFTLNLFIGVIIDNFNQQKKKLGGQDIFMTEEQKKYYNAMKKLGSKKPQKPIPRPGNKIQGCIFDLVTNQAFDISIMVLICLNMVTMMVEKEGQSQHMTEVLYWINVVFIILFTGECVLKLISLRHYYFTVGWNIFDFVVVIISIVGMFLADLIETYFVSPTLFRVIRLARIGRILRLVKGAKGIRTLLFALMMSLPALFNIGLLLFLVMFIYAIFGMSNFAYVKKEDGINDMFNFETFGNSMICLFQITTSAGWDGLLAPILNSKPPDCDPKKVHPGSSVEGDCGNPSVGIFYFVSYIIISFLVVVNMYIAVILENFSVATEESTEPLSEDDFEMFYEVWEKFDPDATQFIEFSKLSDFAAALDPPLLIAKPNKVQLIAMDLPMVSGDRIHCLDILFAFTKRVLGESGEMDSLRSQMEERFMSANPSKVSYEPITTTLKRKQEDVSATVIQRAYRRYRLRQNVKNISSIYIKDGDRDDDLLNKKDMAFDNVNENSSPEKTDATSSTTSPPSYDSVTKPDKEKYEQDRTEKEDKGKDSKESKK
Give measured IC50 for each item. Keep answers brief.

Quick one: IC50 of Cc1nc(C(=O)N2CCC3(CC2)NCC(C)n2c(C(=O)C(F)(F)F)ccc23)ccc1OC(C)C (stereo not shown) [Compound 198] ? ≤ 2000 nM

Now give it for Cc1cccc(C(=O)N2CCC3(CC2)c2ccc(C(F)(F)F)n2CCN3C)n1 [Compound 63] too. > 5000 nM

Now give it for CN1CCn2c(ccc2C(F)(F)C(F)(F)F)C12CCN(C(=O)c1ccc(C3(O)CCCC3)cc1)CC2 [Compound 587] too. ≤ 2000 nM

Now give it for COc1cc(C(=O)N2CCC3(CC2)c2ccc(C(C)=O)n2CCN3C)ccc1OCC(C)C [Compound 230] too. ≤ 2000 nM

Now give it for CN1CCn2c(C(F)(F)F)ccc2C12CCN(C(=O)c1ccc(OC(C)(C)C)cn1)CC2 [Compound 196] too. > 5000 nM

Now give it for CN1CCn2c(ccc2C(F)(F)C(F)(F)F)C12CCN(C(=O)c1ccc(C(C)(C)O)c(F)c1)CC2 [Compound 253] too. ≤ 2000 nM

Now give it for Cc1cc(C(=O)N2CCC3(CC2)c2ccc(C(=O)C(F)(F)F)n2CCN3C)ccc1-c1cccc(Cl)c1 [Compound 236] too. ≤ 2000 nM
